IC50: recorded values
- System under test: BLK (Homo sapiens (Human), UniProt P51451)
- Sequence (P51451 whole entry): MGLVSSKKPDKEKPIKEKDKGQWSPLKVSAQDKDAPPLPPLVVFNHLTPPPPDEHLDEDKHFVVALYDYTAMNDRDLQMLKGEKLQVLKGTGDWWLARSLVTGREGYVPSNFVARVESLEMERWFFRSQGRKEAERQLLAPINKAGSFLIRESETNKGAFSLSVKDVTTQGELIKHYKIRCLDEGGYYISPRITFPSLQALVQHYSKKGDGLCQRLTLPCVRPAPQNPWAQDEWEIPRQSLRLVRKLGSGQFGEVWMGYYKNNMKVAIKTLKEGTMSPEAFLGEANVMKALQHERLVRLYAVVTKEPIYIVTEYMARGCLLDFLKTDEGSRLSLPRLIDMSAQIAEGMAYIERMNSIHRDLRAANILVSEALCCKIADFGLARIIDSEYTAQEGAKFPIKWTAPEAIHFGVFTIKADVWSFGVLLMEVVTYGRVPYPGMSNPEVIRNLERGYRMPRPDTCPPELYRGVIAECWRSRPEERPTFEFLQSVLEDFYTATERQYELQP
- Assay name: Radioisotope filter binding assay
- Type: biochemical
- Details: read-out: IC50 Activity Levels Against SRC Family Kinases: BLK

Solved cases below.
Nc1ncnc2c1c(-c1ccc(Oc3ccccc3)cc1)nn2C[C@@H]1SSC[C@@H]1O [46 A.] :: 5 to 99 nM
Nc1ncnc2c1c(-c1ccc(Oc3ccccc3)cc1)nn2C[C@H]1SSC[C@H]1O [46 B.] :: < 5 nM
Nc1ncnc2c1c(-c1ccc(Oc3ccccc3)cc1)nn2C[C@@H]1SSC[C@H]1O [43 A.] :: < 5 nM

Now look at this one.
In one line, give reported IC50 of the entry Nc1ncnc2c1c(-c1ccc(Oc3ccccc3)cc1)nn2C[C@H]1SSC[C@@H]1O [43 B.] . 5 to 99 nM
